Measurement Target: T1, ZFP SBS#1222 (synthetic, UniProt P08047)
T1 chain: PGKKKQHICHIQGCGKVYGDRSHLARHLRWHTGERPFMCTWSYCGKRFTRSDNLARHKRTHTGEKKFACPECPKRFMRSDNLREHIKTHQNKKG
Assay Overview: EMSA
Settings: tags: MBP fusion
Recorded Endpoint: Kd (nM)
Report as a plain number; the unit nM is understood.

# lookup: Kd of CAGGAGGGC (dsDNA) DNA 1: CAGGAGGGC DNA 2: GCCCTCCTG
0.155
